measurement_label: melting point

Use these answered entries as a reference point.
CC1(C)COC2(CCC(NC3CCC(Nc4cc(C(F)(F)F)nc5c(C(F)(F)F)cccc45)CC3)CC2)OO1 (stereo not drawn) [PA1251] | 168 °C (dec.)
CC1(C)COC2(CCC(NC3CCC(Nc4ccnc5cc(Cl)ccc45)CC3)CC2)OO1 (stereo not drawn) [PA1103] | 176 °C (dec.)
CC1(C)COC2(CCC(NC3CCC(Nc4ccnc5ccc(OC(F)(F)F)cc45)CC3)CC2)OO1 (stereo not drawn) [PA1305] | 165 °C (dec.)

What value of measured melting point is listed for CN(C)c1ccc2nccc(NC3CCC(NC4CCC5(CC4)OCC(C)(C)OO5)CC3)c2c1 (stereo not drawn) [PA1253] ?
193 °C (dec.)

Now the same for CC1(C)COC2(CCC(NC3CCC(Nc4ccnc5cc(C(F)(F)F)ccc45)CC3)CC2)OO1 (stereo not drawn) [PA1252]
166.5 °C (dec.)

Lookup CC1OOC2(CCC(NC3CCC(Nc4ccnc5cc(Cl)ccc45)CC3)CC2)OC1C (stereo not drawn) [PA1255]
166 °C (dec.)

###

# System: P. falciparum FcB1-Columbia strain
# assay_details: Chemosensitivity test (radioactive micromethod, tritiated hypoxanthine incorporation), FcB1-Columbia strain
# Format: cell-based
# experimental_conditions: Plasmodium falciparum; FcB1-Columbia strain (moderately chloroquine-resistant), in human red blood corpuscles, 48 h; read-out: IC50 (concentration required to inhibit parasite growth by 50%)
# Method: Strains of P. falciparum were cultivated continuously using Trager and Jensen's method (Science, 1976, 193, 673-675): the parasites were maintained in human red blood corpuscles (O±), diluted to a blood parasite level of 2% in RPMI 1640 medium supplemented with 25 mM Hepes+24 mM NaHCO3+2 mM L-glutamine and complemented with 5% human serum from all groups. The parasites were incubated at 37° C., in a moist atmosphere and 5% CO2. […]
measurement_label: IC50 (nM)
Number in nM, nothing else.

Param readout= IC50; system= P. falciparum FcB1-Columbia strain; entry= C[C@@H]1CC[C@H]2[C@@H](C)C(=O)O[C@@H]3O[C@@]4(C)CC[C@@H]1[C@]32OO4 [artemisinin, reference compound] ; returns value.
11

###

# assay_details: Metabolic stability on human hepatic microsomes
# Format: in vitro ADME
# experimental_conditions: human hepatic microsomes 1 mg/ml, 5 μM substrate, 1 mM NADPH, 20 minutes at 37° C., degradation with respect to T0
measurement_label: Percentage metabolization (%)

See these solved cases before continuing.
C[C@H]1[C@H](OC(=O)CCC(=O)O)O[C@@H]2O[C@@]3(C)CC[C@H]4[C@H](C)CC[C@@H]1[C@@]24OO3 [artesunate, reference compound] | 100
CCN(CC)CCCC(C)Nc1ccnc2cc(Cl)ccc12 (centres unmarked) [chloroquine, reference compound] | 29

P = Clc1ccc2c(NCCN3CCC4(CC3)OCC3(CCCCC3)OO4)ccnc2c1 [PA1110, reference compound]
Q = CC1(C)COC2(CCC(NC3CCC(Nc4ccnc5cc(Cl)ccc45)CC3)CC2)OO1 (centres unmarked)
Could you point out whether the larger Percentage metabolization belongs to P or to Q ? // respond with label for picked entry
P
(P: 98%, Q: 11%)
